All values here come from PubChem BioAssay (NCI).

Tested on: HOP-92 NSCLC
Assay: NCI tumour cell line growth inhibition, 48 h

MOLECULE: C=CCN(N=O)C(=O)ON1C(=O)CCC1=O
TGI: > 100 µM
--
MOLECULE: O=C1CCC(CCc2nc3ccccc3[nH]2)(c2ccccc2)C(=O)N1 (stereo unspecified)
TGI: > 100 µM
--
MOLECULE: O=C(O)Cn1c[n+](NC(=O)Cc2ccccc2)cn1
TGI: > 10 µM
--
MOLECULE: COc1ccc(-c2nn(-c3cccc(Cl)c3)cc2/C=C2\C(=N)N(c3ccccc3)N=C2N)cc1
TGI: > 81.4 µM
--
MOLECULE: Cc1nc2ccccc2n1Cc1ccc(NC(=S)Nc2ccccc2)cc1
TGI: > 100 µM
--
MOLECULE: COC(=O)c1ccc2cc(O)ccc2c1
TGI: > 100 µM

====

Entries and their measured TGI follow.
Tested on: OVCAR-5 ovarian
Test: NCI tumour cell line growth inhibition, 48 h

MOLECULE: COc1cccc(C2CC(=O)Nc3cc4c(cc32)CCC4)c1OC (stereo not drawn)
TGI: > 80.3 µM
//
MOLECULE: COc1cc2c(c(OC)c1OC)-c1ccc(SC)c(=O)cc1[C@@H](NC(=O)c1ccc(F)cc1)CC2
TGI: > 100 µM
//
MOLECULE: COc1cc(-c2nn3c(=O)n(-c4ccc(Cl)cc4)c(=O)nc3s2)cc(OC)c1OC
TGI: > 100 µM

====

System: IGROV1 ovarian
Experiment: NCI tumour cell line growth inhibition, 48 h

COMPOUND: COc1ccc(C(=O)/C=C/c2ccc(OCCCCCCCCCCOc3ccc(/C=C/C(=O)c4ccc(OC)c(OC)c4)cc3)cc2)c(OC)c1
TGI: > 100 µM
//
COMPOUND: COc1ccc(-c2cn(-c3cc(OC)c(OC)c(OC)c3)c(=O)n2-c2ccccc2)cc1
TGI: > 100 µM
//
COMPOUND: N=C(N)SCC(=O)O
TGI: > 100 µM
//
COMPOUND: O=C1CCC(CCc2nc3ccccc3[nH]2)(c2ccccc2)C(=O)N1 (stereo unspecified)
TGI: > 100 µM
//
COMPOUND: O/N=C/[C@H]1COC2(CCCCC2)O1
TGI: > 100 µM
//
COMPOUND: CC(=O)c1c(Nc2ccc(F)c(F)c2F)[nH]c2c(F)cc(F)cc2c1=O
TGI: > 47.4 µM

====

Tested on: XF 498 CNS
Test: NCI tumour cell line growth inhibition, 48 h
Entries and their measured TGI follow.

MOLECULE: CCOc1ccccc1NC(=O)CCC(=O)NN
TGI: > 100 µM
//
MOLECULE: C=C1c2ccccc2N(S(=O)(=O)c2ccc(C)cc2)C12CCCCC2
TGI: > 100 µM
//
MOLECULE: CCc1nc2c([nH]1)C(=O)c1ccccc1C2=O
TGI: 67.1 µM
//
MOLECULE: Cc1cc(N(CCC#N)CCC#N)ccc1/C=C/C(=O)Nc1ccccc1Cl
TGI: > 100 µM
//
MOLECULE: CC(C)(C)c1cc(C(=O)O)c(C(c2ccccc2)c2ccccc2C(=O)O)c(C(=O)O)c1 (stereo unspecified)
TGI: > 100 µM
//
MOLECULE: O=C(NOC(=O)c1ccc([N+](=O)[O-])cc1)c1ccc(Cl)cc1
TGI: > 100 µM
